// TGI lookup, one value per entry
Test system: HS 578T breast
Test summary: NCI tumour cell line growth inhibition, 48 h

Examples with their reported TGI follow.
[[record]]
compound = "O=C1C2C(c3ccccc3)NC(c3ccccc3)C1C(c1ccccc1)NC2c1ccccc1 (stereo not drawn)"
result = "> 100 µM"

[[record]]
compound = "C[C@]12C[C@@H](c3ccccc3)Nc3ccccc3N1C(c1ccccc1)=NO2"
result = "> 100 µM"


QUERY: Can you look up the measured TGI of `CC(=O)OCC(=O)[C@@]12OC(C)(C)O[C@@H]1C[C@H]1[C@@H]3CC=C4C[C@@H](O)CC[C@]4(C)[C@H]3CC[C@@]12C` for me?
RESULT: 63.4 µM

QUERY: What measured TGI goes with `Cc1ccc(C(=O)Nc2ccc(CP(=O)(O)O)cc2CP(=O)(O)O)cc1NC(=O)c1cccc(NC(=O)Nc2cccc(C(=O)Nc3cc(C(=O)Nc4ccc(CP(=O)(O)O)cc4CP(=O)(O)O)ccc3C)c2)c1` ?
RESULT: > 100 µM

QUERY: Value lookup for TGI; key = CN(C)CC1C(=O)O[C@H]2[C@H]1CC/C(COC(=O)c1cc3ccccc3[nH]1)=C\CC[C@@]1(C)O[C@@H]21 (stereo partly drawn)
RESULT: 13.6 µM

QUERY: Given the compound O=C(O)C1C(C(=O)O)C23CC2(C(=O)O)C2(C(=O)O)CCC3=C3CCCC312 (stereo not drawn) , what is its reported TGI?
RESULT: 7.8 µM

QUERY: GET /values?readout=TGI&item= `C=CCN1C(=O)/C(=C/c2ccc(C)cc2)NC1=S`
RESULT: > 100 µM

QUERY: Any idea what its TGI is? The compound is `COC(=O)C1=C(C(=O)OC)SC(=C(Cl)C(=S)Nc2ccccc2O)S1`
RESULT: > 50 µM

The measurements presented in this section are drawn from PubChem BioAssay (NCI).
